- Target Under Test: UniProt O60674
- Sequence (O60674 whole entry, the tested form may be a part): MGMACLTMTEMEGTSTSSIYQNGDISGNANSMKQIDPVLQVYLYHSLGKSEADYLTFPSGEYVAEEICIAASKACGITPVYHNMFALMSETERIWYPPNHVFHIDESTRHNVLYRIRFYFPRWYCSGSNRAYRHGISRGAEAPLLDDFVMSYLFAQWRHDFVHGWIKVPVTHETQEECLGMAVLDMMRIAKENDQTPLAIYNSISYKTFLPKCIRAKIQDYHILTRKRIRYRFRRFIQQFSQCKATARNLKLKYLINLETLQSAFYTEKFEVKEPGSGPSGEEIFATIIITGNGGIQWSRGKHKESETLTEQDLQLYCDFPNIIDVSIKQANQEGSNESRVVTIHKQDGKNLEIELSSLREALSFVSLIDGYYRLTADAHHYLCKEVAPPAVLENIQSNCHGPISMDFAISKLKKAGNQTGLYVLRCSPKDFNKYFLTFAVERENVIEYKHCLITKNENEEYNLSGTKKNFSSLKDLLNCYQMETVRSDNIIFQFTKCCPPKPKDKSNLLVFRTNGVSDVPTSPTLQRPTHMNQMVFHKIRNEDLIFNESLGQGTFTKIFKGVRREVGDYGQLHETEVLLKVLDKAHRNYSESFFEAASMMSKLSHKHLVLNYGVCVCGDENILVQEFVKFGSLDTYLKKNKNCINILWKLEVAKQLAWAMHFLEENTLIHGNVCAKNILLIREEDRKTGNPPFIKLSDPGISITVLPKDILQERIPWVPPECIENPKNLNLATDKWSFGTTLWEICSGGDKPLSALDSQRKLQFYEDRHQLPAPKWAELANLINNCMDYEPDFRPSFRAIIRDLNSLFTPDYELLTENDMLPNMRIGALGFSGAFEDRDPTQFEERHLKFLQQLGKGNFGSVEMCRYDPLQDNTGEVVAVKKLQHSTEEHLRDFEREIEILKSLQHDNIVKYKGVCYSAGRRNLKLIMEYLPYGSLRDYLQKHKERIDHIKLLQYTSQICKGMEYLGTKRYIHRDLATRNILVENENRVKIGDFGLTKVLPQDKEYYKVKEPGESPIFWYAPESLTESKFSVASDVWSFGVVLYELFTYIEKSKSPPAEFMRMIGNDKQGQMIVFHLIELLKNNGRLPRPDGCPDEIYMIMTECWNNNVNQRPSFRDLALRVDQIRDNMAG
- Experiment Notes: Inhibition of recombinant human JAK2 (831 to 1132 residues) expressed in insect cells using 5FAM-GEEPLYWSFPAKKK-NH2 as substrate after 10 mins by caliper assay
pIC50: −log10 of the molar value.
Test Readout: pIC50

• Cc1cnc(Nc2cccc(N3CCN(C)CC3)c2)nc1Nc1cccc(CO)c1 = 6.45

(I) Cc1cnc(Nc2cc(C(F)F)cc(N3C[C@@H]4C[C@H]3CN4C)c2)nc1Nc1cccc(CO)c1
(II) CN1CCN(c2cc(Nc3nccc(Nc4ccc(F)c(Cl)c4F)n3)cc(S(C)(=O)=O)c2)CC1
(III) CN1CCN(c2cc(Nc3ncc(Cl)c(Nc4cccc(CO)c4)n3)cc(S(C)(=O)=O)c2)CC1
(IV) CN1CCN(c2cc(Nc3ncc(F)c(Nc4cccc(CO)c4)n3)cc(S(C)(=O)=O)c2)CC1
Enquiry: Arrange these compounds by their pIC50, starting with the largest number. Kindly provide the labels arranged according to the requested ordering.
Return: II, I, III, IV
(II: 7.44, I: 6.42, III: 6.14, IV: 5.19)

---

- Target Under Test: Tyrosine-protein kinase JAK1 (Homo sapiens, UniProt P23458)
- Sequence (P23458 whole entry, the tested form may be a part): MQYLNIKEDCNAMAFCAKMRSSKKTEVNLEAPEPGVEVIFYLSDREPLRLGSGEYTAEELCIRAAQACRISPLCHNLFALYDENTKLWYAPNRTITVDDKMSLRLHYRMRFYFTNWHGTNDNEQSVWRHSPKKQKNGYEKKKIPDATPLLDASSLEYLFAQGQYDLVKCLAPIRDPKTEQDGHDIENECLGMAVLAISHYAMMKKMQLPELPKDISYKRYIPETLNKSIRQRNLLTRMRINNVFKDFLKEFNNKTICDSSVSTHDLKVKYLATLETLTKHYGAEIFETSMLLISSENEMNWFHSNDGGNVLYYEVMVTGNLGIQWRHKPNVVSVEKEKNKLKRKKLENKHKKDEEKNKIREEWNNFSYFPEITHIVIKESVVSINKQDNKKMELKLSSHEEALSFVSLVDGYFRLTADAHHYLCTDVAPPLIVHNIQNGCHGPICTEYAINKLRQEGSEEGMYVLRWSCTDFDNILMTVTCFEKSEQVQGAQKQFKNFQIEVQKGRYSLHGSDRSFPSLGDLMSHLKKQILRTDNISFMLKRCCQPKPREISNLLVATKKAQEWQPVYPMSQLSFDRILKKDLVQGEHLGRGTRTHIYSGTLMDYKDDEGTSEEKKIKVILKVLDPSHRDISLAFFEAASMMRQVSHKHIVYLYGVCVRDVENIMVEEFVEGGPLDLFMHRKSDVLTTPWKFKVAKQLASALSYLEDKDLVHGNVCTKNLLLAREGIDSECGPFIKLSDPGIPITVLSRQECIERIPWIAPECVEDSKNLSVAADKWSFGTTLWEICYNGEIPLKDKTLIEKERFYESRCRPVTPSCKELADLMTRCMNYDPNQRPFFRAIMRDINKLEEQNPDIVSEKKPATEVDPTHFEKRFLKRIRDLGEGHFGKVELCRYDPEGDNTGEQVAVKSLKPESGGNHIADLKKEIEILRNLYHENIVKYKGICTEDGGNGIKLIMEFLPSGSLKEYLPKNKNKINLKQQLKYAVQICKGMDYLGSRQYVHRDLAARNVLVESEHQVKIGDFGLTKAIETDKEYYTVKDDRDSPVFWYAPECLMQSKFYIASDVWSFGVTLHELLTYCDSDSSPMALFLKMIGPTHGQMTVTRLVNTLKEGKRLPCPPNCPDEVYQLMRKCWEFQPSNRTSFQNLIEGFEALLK
- Experiment Notes: Inhibition of cytoplasmic recombinant human GST-tagged JAK1 (886 to 1154 residues) expressed in insect cells using FITC-C6-KKHTDDGYMPMSPGVA-NH as substrate after 10 mins by caliper assay
pIC50: −log10 of the molar value.
Test Readout: pIC50

- Cc1cnc(Nc2cc(N3CCN(C)CC3)cc(S(C)(=O)=O)c2)nc1Nc1cccc(CO)c1: > 8.52
- CN1CCN(c2cc(Nc3nccc(Nc4ccc(F)c(Cl)c4F)n3)cc(S(C)(=O)=O)c2)CC1: > 8.52
- Cc1cnc(Nc2cc(N3CCNCC3)cc(S(C)(=O)=O)c2)nc1Nc1cccc(CO)c1: > 8.52

Entry "CN1CCN(c2cc(Nc3nccc(Nc4cccc(CO)c4)n3)cc(S(C)(=O)=O)c2)CC1" , pIC50 reported as 7.00 to 8.52

---

- Species: Homo sapiens
- Experiment Notes: Selectivity ratio of IC50 for recombinant human JAK2 (831 to 1132 residues) expressed in insect cell to IC50 for cytoplasmic recombinant human GST-tagged JAK1 (886 to 1154 residues) expressed in baculovirus
Test Readout: Ratio IC50

Previously resolved entries follow.
• Cc1cnc(Nc2cc(N3CCN(C)CC3)cc(S(C)(=O)=O)c2)nc1Nc1cccc(CO)c1 = > 309
• CN1CCN(c2cc(Nc3ncc(Cl)c(Nc4cccc(CO)c4)n3)cc(S(C)(=O)=O)c2)CC1 = > 240
• CN1CCN(c2cc(Nc3ncc(Br)c(Nc4cccc(CO)c4)n3)cc(S(C)(=O)=O)c2)CC1 = > 120

Entry "CN1CCN(c2cc(Nc3nccc(Nc4ccc(F)c(Cl)c4F)n3)cc(S(C)(=O)=O)c2)CC1" , Ratio IC50 reported as > 10

Entry "Cc1cnc(Nc2cc(N3CCOCC3)cc(N3CCOCC3)c2)nc1Nc1cccc(CO)c1" , Ratio IC50 reported as < 0.75
